The reader will find reported IC50 values listed item by item below.
# target-of-assay: hBChE (human butyrylcholinesterase) (Homo sapiens, UniProt P06276)
# Construct: gene BCHE
# Sequence (P06276 29-602): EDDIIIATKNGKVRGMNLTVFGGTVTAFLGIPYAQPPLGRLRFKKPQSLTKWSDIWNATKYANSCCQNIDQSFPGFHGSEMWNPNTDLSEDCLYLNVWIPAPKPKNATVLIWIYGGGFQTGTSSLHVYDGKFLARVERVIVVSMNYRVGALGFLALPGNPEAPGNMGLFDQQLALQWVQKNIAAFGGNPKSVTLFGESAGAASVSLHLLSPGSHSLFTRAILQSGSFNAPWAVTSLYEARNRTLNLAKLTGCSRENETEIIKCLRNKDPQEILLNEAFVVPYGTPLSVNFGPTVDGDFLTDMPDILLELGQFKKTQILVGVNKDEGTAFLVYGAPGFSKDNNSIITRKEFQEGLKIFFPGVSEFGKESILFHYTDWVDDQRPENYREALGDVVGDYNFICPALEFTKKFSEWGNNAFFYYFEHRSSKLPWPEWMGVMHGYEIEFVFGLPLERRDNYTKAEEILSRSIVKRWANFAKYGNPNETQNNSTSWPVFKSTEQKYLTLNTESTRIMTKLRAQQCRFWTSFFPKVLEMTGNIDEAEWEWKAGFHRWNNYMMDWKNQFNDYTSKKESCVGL
# measurement-description: Ellman assay, […] nm
# Format: biochemical
measurement-label: IC50 (nM)

>>> df
                                   molecule  obs_value
0                    C#CCCCCCCCCCN(C)C(=O)F        197
1                 O=C(F)N1CCN(c2ccccc2F)CC1        656
2  CCCCN(Cc1ccccc1)C(=O)F [3c, Benzyl(butyl)carbamic Fluoride]       2430
3          O=C(F)N1CCC(c2c[nH]c3ccccc23)CC1       23.5

* * *

# target-of-assay: hBChE (human butyrylcholinesterase) (Homo sapiens)
# Construct: gene BCHE
# measurement-description: Ellman assay, […] nm
# Type: biochemical
# test-context: read-out: hBChE
# note: exactly 200 nM is not below, so it is criterion not met; use criterion met for IC50 strictly under it

>>> df
                                   compound                           target_of_assay  qualitative_label
0  O=C(F)N1CCC(Cc2ccccc2)CC1 [3g, 4-Benzylpiperidine-1-carbonyl Fluoride]  hBChE (human butyrylcholinesterase) (Homo sapiens)      criterion met
1  CN(C(=O)F)c1cccc2cc[nH]c12 [3k, (1H-Indol-7-yl)(methyl)carbamic Fluoride]  hBChE (human butyrylcholinesterase) (Homo sapiens)      criterion met
2  O=C(F)N1Cc2ccccc2C1 [3e, Isoindoline-2-carbonyl Fluoride]  hBChE (human butyrylcholinesterase) (Homo sapiens)  criterion not met
3                      O=C(F)N1CCc2ccccc2C1  hBChE (human butyrylcholinesterase) (Homo sapiens)  criterion not met
4  O=C(F)N(Cc1ccccc1)Cc1ccccc1 [3b, Dibenzylcarbamic Fluoride]  hBChE (human butyrylcholinesterase) (Homo sapiens)      criterion met
5  CN(Cc1ccccc1)C(=O)F [3a, Benzyl(methyl)carbamic Fluoride]  hBChE (human butyrylcholinesterase) (Homo sapiens)      criterion met

* * *

# target-of-assay: hAChE (human acetylcholinesterase) (Homo sapiens)
# Construct: gene ACHE
# Sequence (P22303 32-614): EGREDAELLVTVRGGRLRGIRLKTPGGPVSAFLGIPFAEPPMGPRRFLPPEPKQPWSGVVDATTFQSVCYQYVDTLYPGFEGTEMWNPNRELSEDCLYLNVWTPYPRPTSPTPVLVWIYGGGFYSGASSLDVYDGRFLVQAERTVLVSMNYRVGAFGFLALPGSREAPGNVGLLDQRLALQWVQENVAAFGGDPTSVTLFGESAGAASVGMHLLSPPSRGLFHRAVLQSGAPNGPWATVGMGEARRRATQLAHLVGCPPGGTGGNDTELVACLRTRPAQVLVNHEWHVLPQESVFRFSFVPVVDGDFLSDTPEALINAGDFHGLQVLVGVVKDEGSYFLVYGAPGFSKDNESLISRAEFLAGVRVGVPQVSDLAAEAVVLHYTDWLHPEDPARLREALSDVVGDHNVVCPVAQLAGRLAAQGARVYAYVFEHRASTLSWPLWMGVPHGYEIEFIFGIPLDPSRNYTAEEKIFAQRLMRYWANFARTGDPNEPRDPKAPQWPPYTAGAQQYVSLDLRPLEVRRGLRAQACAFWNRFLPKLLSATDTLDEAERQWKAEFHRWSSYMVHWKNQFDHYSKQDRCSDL
# measurement-description: Ellman assay, […] nm
# Type: biochemical
pIC50: −log10 of the molar value.
# pIC50 annotations
measurement-label: pIC50

                                   molecule                           target_of_assay  obs_value
0  CCCCN(Cc1ccccc1)C(=O)F [3c, Benzyl(butyl)carbamic Fluoride]  hAChE (human acetylcholinesterase) (Homo sapiens)       5.35
1            O=C(F)N1CCN(c2ccccc2F)CC1 [3j]  hAChE (human acetylcholinesterase) (Homo sapiens)       4.97
2               C#CCCCCCCCCCN(C)C(=O)F [3i]  hAChE (human acetylcholinesterase) (Homo sapiens)       5.29
3     O=C(F)N1CCC(c2c[nH]c3ccccc23)CC1 [3h]  hAChE (human acetylcholinesterase) (Homo sapiens)       4.73
